Attribution: ChEMBL document CHEMBL3879915

Kindly supply the reported EC50 values for the records listed here.
# SUBJECT OF TEST: Protein arginine N-methyltransferase 5 (Homo sapiens)
# Sequence (O14744 whole entry): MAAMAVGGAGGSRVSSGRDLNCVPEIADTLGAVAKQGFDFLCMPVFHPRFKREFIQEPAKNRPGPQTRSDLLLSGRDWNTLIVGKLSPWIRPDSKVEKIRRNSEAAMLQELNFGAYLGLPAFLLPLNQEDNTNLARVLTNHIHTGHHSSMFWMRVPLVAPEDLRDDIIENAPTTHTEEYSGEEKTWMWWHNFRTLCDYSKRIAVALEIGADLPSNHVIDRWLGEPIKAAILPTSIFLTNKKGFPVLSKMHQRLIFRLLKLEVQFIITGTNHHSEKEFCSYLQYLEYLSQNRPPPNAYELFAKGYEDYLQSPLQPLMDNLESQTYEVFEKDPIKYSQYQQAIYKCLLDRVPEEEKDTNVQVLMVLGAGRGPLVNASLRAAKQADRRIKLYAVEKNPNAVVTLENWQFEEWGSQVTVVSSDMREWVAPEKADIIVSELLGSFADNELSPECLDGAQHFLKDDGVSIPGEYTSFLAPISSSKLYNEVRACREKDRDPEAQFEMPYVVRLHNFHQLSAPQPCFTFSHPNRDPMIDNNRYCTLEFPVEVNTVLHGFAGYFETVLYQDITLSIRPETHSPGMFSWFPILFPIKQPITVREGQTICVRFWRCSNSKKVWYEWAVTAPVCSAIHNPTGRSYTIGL
# PROCEDURE TEXT: Inhibition of PRMT5 in human Z138 cells assessed as decrease in di-methyl arginine levels after 96 hrs by Western blot method

O=C(COc1cccc2ncc(=O)[nH]c12)NCC(O)CN1CCc2ccccc2C1 (stereo not given) | 1 to 10 µM
O=C(COc1ccccc1OCCN1CCOCC1)NC[C@H](O)CN1CCc2ccccc2C1 | 0.101 to 1 µM
OC(COc1cccc(-c2ccc3ncn(C4CCOCC4)c3c2)c1)CN1CCc2ccccc2C1 (stereo not given) | 0.101 to 1 µM
O=C(Nc1cccc(OCC(O)CN2CCc3ccccc3C2)c1)c1cncnc1 (stereo not given) | 1 to 10 µM
OC(COc1cccc(-c2ccc3ncn(C4COC4)c3c2)c1)CN1CCc2ccccc2C1 (stereo not given) | 0.101 to 1 µM
CN1CCC(n2cnc3ccc(-c4cccc(OCC(O)CN5CCc6ccccc6C5)c4)cc32)C1 (stereo not given) | 0.101 to 1 µM

// each listed compound needs a value for EC50
1. CN(C)c1ccc2cccc(OCC(=O)NC[C@@H](O)CN3CCc4ccccc4C3)c2n1
2. O=C(NCC(O)CN1CCc2ccccc2C1)c1cccc(CN2CCNCC2)c1 (stereo not given)
3. Cn1cnc2ccc(-c3ccnc(NC[C@@H](O)CN4CCc5ccccc5C4)c3)cc21
4. CC(=O)N1CCN(c2ccccc2OCC(=O)NCC(O)CN2CCc3ccccc3C2)CC1 (stereo not given)

1. 0.101 to 1 µM
2. 0.101 to 1 µM
3. 1 to 10 µM
4. 0.101 to 1 µM

====

# SUBJECT OF TEST: PRMT5/MEP50 complex (Homo sapiens)
# PROCEDURE TEXT: Inhibition of recombinant human fetal brain FLAG-tagged PRMT5/full length human testis 6His-tagged MEP50 expressed in baculovirus infected insect Sf9 cells using human histone H4 (1 to 15 residues) as substrate preincubated for 30 mins followed by [3H]-SAM addition
pIC50: −log10 of the molar value.
Give measured pIC50 for each item. Keep answers brief.

Answered examples (8):
CC(=O)Nc1ncccc1OCC(=O)NCC(O)CN1CCc2ccccc2C1 (stereo not given) | < 5.00
O=C(NCC(O)CN1CCc2ccccc2C1)c1ccccc1-c1ccccn1 (stereo not given) | 6.00 to 7.00
OC(COc1cccc(-c2ccc3ncn(Cc4ccccc4)c3c2)c1)CN1CCc2ccccc2C1 (stereo not given) | > 7.00
N#Cc1cccc(OCC(=O)NCC(O)CN2CCc3ccccc3C2)c1 (stereo not given) | 6.00 to 7.00
O=C(COc1cccc2cccnc12)NC[C@H](O)CN1Cc2ccccc2C1 | > 7.00
CN(C)S(=O)(=O)c1ccccc1OCC(=O)NCC(O)CN1Cc2ccccc2C1 (stereo not given) | > 7.00
O=C(COc1cccc2ccccc12)NCC(O)CN1CCc2ccccc2C1 (stereo not given) | > 7.00
OC(COc1cccc(-c2ccc3c(c2)OCO3)c1)CN1CCc2ccccc2C1 (stereo not given) | 6.00 to 7.00

// input: 2 molecules below; output: pIC50 for each
1. CC(=O)N1CCc2c(cccc2OCC(=O)NCC(O)CN2CCc3ccccc3C2)C1 (stereo not given)
2. OC(COc1cccc(-c2ccc(C(F)(F)F)cc2)c1)CN1CCc2ccccc2C1 (stereo not given)

1. > 7.00
2. 5.00 to 6.00

====

So I've got a bunch of compounds here, and I need their pIC50 values.
# SUBJECT OF TEST: PRMT5/MEP50 complex (Homo sapiens, UniProt O14744)
# Sequence (O14744 whole entry, the tested form may be a part): as the sequence (O14744 whole entry) above
# Sequence (Q9BQA1 whole entry, further chain, the tested form may be a part): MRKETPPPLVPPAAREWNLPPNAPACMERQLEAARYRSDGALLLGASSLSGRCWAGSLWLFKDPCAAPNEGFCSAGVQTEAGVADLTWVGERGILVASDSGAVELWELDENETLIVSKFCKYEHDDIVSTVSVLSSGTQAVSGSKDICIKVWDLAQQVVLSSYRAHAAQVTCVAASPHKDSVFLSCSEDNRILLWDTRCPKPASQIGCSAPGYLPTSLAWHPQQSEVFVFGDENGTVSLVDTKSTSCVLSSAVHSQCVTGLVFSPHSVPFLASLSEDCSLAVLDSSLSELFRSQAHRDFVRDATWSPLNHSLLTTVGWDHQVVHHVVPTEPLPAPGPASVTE
# PROCEDURE TEXT: Inhibition of recombinant human fetal brain FLAG-tagged PRMT5/full length human testis 6His-tagged MEP50 expressed in baculovirus infected insect Sf9 cells using human histone H4 (1 to 15 residues) as substrate preincubated for 30 mins followed by [3H]-SAM addition
pIC50: −log10 of the molar value.

O=C1NCc2ccc(-c3cccc(OCC(O)CN4CCc5ccccc5C4)c3)cc21 (stereo not given) | 6.00 to 7.00
CNC(=O)Cn1cnc2ccc(-c3cccc(OCC(O)CN4CCc5ccccc5C4)c3)cc21 (stereo not given) | 6.00 to 7.00
O=C(Cn1ccc2cnc(-c3cccc(OCC(O)CN4CCc5ccccc5C4)c3)nc21)N1CCCC1 (stereo not given) | 6.00 to 7.00
COc1c(COCC(O)CN2CCc3ccccc3C2)ccc2ccccc12 (stereo not given) | 5.00 to 6.00

Output reported pIC50 of the compound Cn1cnc2ccc(-c3cncc(NCC(O)CN4CCc5ccccc5C4)c3)cc21 (stereo not given) on PRMT5/MEP50 complex (Homo sapiens, UniProt O14744).
> 7.00

====

# SUBJECT OF TEST: PRMT5/MEP50 complex (Homo sapiens, UniProt O14744)
# PROCEDURE TEXT: Inhibition of recombinant human fetal brain FLAG-tagged PRMT5/full length human testis 6His-tagged MEP50 expressed in baculovirus infected insect Sf9 cells using human histone H4 (1 to 15 residues) as substrate preincubated for 30 mins followed by [3H]-SAM addition
REPORTED PROPERTY: IC50

As a guide, the following entries are already answered.
O=C(COC1CCOCC1)NCC(O)CN1CCc2ccccc2C1 (stereo not drawn) | 1000 to 10000 nM
OC(COC1CCOCC1)CN1CCc2ccccc2C1 (stereo not drawn) | 10000 to 40000 nM
CN(CC(O)CN1CCc2ccccc2C1)c1cccc(C(=O)NC2CCOCC2)c1 (stereo not drawn) | 10000 to 40000 nM
Oc1ccc(-c2cccc(OCC(O)CN3CCc4ccccc4C3)c2)cc1F (stereo not drawn) | 1000 to 10000 nM
CN1CCC(OCC(O)CN2CCc3ccccc3C2)C1 (stereo not drawn) | > 40000 nM

Batch request: IC50 for each of the following compounds.
1. O=C(NCC(O)CN1CCc2ccccc2C1)c1ccc(OC2CCOCC2)cc1 (stereo not drawn)
2. CN(C)CCOc1ccccc1OCC(=O)NC[C@H](O)CN1CCc2ccccc2C1
3. OC(COc1cccc(-c2cncc(F)c2)c1)CN1CCc2ccccc2C1 (stereo not drawn)

1. < 100 nM
2. < 100 nM
3. 1000 to 10000 nM

====

# SUBJECT OF TEST: PRMT5/MEP50 complex (Homo sapiens, UniProt O14744)
# PROCEDURE TEXT: Inhibition of recombinant human fetal brain FLAG-tagged PRMT5/full length human testis 6His-tagged MEP50 expressed in baculovirus infected insect Sf9 cells using human histone H4 (1 to 15 residues) as substrate preincubated for 30 mins followed by [3H]-SAM addition
REPORTED PROPERTY: IC50

Illustrative cases are given below, each with its answer.
CCC1c2ccccc2CCN1CC(O)COc1cccc(-c2ccc3ncn(C)c3c2)c1 (configuration not stated) | 0.101 to 1 µM
Cn1cnc2ccc(-c3cc(NCC(O)CN4CCc5ccccc5C4)ncn3)cc21 (configuration not stated) | 0.101 to 1 µM
N#Cc1ccc(OCC(=O)NCC(O)CN2CCc3ccccc3C2)cc1 (configuration not stated) | 0.101 to 1 µM
NS(=O)(=O)c1ccccc1C(=O)NCC(O)CN1CCc2ccccc2C1 (configuration not stated) | 1 to 10 µM
OC(COc1cccc(-c2cncnc2)c1)CN1CCc2ccccc2C1 (configuration not stated) | 1 to 10 µM

Here are 2 molecules. What values of IC50 were reported for them?
1. Cn1cncc1C(=O)Nc1cccc(OCC(O)CN2CCc3ccccc3C2)c1 (configuration not stated)
2. OC(COc1cccc(-c2ncc3ccn(C4CCNCC4)c3n2)c1)CN1CCc2ccccc2C1 (configuration not stated)

1. 1 to 10 µM
2. < 0.1 µM

Fill in IC50 for each of the 5 molecules listed.
1. O[C@H](COc1cccc(CNC2CCCC2)c1)CN1CCc2ccccc2C1
2. Cn1cnc2ccc(-c3cc(NCC(O)CN4CCc5ccccc5C4)ccn3)cc21 (configuration not stated)
3. O=C(Cn1ccc2cnc(-c3ccnc(NCC(O)CN4CCc5ccccc5C4)c3)nc21)N1CCOCC1 (configuration not stated)
4. O=C(NCC(O)CN1CCc2ccccc2C1)c1cccc(-c2ccncc2)c1 (configuration not stated)
5. O=C(c1cccc(-c2cccc(OCC(O)CN3CCc4ccccc4C3)c2)c1)N1CCOCC1 (configuration not stated)

1: 0.101 to 1 µM; 2: 0.101 to 1 µM; 3: < 0.1 µM; 4: < 0.1 µM; 5: 0.101 to 1 µM

====

# SUBJECT OF TEST: PRMT5/MEP50 complex (Homo sapiens, UniProt O14744)
# PROCEDURE TEXT: Inhibition of recombinant human fetal brain FLAG-tagged PRMT5/full length human testis 6His-tagged MEP50 expressed in baculovirus infected insect Sf9 cells using human histone H4 (1 to 15 residues) as substrate preincubated for 30 mins followed by [3H]-SAM addition
pIC50: −log10 of the molar value.
REPORTED PROPERTY: pIC50

Worked examples follow.
CNC(=O)c1ccccc1OCC(=O)NCC(O)CN1CCc2ccccc2C1 (stereo not given) | 6.00 to 7.00
Cc1c(NC2CCOCC2)cccc1C(=O)NCC(O)CN1CCc2ccccc2C1 (stereo not given) | > 7.00
O=C(COc1cccc2ncc(=O)[nH]c12)NCC(O)CN1CCc2ccccc2C1 (stereo not given) | 6.00 to 7.00

Hey, can you go through the list below and give me pIC50 for every item?
1. O=c1cc(Nc2ccccc2)ccn1C[C@@H](O)CN1CCc2ccccc2C1
2. O=C(Nc1ccccn1)c1cccc(OCC(O)CN2CCc3ccccc3C2)c1 (stereo not given)

1. 6.00 to 7.00
2. 6.00 to 7.00
